biological target: 17-beta-hydroxysteroid dehydrogenase type 1 (Homo sapiens) (UniProt P14061); assay: Inhibition of 17beta-HSD1 overexpressed in homogenated HEK293 cells at 1 uM; assay type: cell-based
Values of inhibition greater than or equal to 20% map to 1; values below map to -1.

Is the recorded value of inhibition equal to or greater than 20% for this molecule? CCCCN(C)C(=O)CCCCCC[C@@H]1C[C@@H]2[C@H](CC[C@]3(C)[C@@H](O)CC[C@@H]23)c2ccc(O)cc21
1

Is the recorded value of inhibition equal to or greater than 20% for this molecule? CCCCN(C)C(=O)CCCCCC[C@H]1C[C@@H]2[C@H](CC[C@]3(C)C(=O)CC[C@@H]23)c2ccc(O)cc21
-1

Is the recorded value of inhibition equal to or greater than 20% for this molecule? CCCCN(C)C(=O)CCCCCC[C@@H]1C[C@@H]2[C@H](CC[C@]3(C)C(=O)CC[C@@H]23)c2ccc(O)cc21
1

Is the recorded value of inhibition equal to or greater than 20% for this molecule? CCCCN(C)C(=O)CCCCCC[C@H]1C[C@@H]2[C@H](CC[C@]3(C)[C@@H](O)CC[C@@H]23)c2ccc(O)cc21
-1

Is the recorded value of inhibition equal to or greater than 20% for this molecule? C[C@]12CC[C@@H]3c4ccc(O)cc4CC[C@H]3[C@@H]1CCC2=O
1

Is the recorded value of inhibition equal to or greater than 20% for this molecule? CCCCN(C)C(=O)CCCCCS[C@@H]1C[C@@H]2[C@H](CC[C@]3(C)[C@@H](O)CC[C@@H]23)c2ccc(O)cc21
1

---

target: 3-keto-steroid reductase/17-beta-hydroxysteroid dehydrogenase 7 (Homo sapiens) (UniProt P56937); test: Inhibition of 17beta-HSD7 over-expressed in intact HEK293 cells at 10 uM; type: cell-based
Sequence (P56937 whole entry): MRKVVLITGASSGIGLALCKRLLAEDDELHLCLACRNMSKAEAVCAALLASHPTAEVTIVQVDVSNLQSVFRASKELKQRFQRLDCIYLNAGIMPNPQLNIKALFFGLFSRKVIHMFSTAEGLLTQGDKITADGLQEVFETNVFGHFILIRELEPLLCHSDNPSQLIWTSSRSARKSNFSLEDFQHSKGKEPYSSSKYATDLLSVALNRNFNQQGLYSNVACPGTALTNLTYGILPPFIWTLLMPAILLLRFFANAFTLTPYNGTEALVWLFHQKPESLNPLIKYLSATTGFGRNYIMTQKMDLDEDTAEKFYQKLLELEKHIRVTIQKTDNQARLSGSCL
Exercise: for every item that follows, state its recorded inhibition.
Just the number in %, nothing appended.

Entry under test: C[C@]12CC[C@@H]3c4ccc(O)cc4CC[C@H]3[C@@H]1CCC2=O . Its inhibition was 0

Entry under test: CCCCN(C)C(=O)CCCCCC[C@H]1C[C@@H]2[C@H](CC[C@]3(C)[C@@H](O)CC[C@@H]23)c2ccc(O)cc21 . Its inhibition was 24

Entry under test: CCCCN(C)C(=O)CCCCCC[C@@H]1C[C@@H]2[C@H](CC[C@]3(C)[C@@H](O)CC[C@@H]23)c2ccc(O)cc21 . Its inhibition was 27

Entry under test: CCCCN(C)C(=O)CCCCCC[C@H]1C[C@@H]2[C@H](CC[C@]3(C)C(=O)CC[C@@H]23)c2ccc(O)cc21 . Its inhibition was 29

Entry under test: CCCCN(C)C(=O)CCCCCC[C@@H]1C[C@@H]2[C@H](CC[C@]3(C)[C@@H](O)CC[C@@H]23)c2cc(OC)c(O)cc21 . Its inhibition was 17

Entry under test: CCCCN(C)C(=O)CCCCCS[C@@H]1C[C@@H]2[C@H](CC[C@]3(C)[C@@H](O)CC[C@@H]23)c2ccc(O)cc21 . Its inhibition was 25

Entry under test: CCCCN(C)C(=O)CCCCCC[C@@H]1C[C@@H]2[C@H](CC[C@]3(C)C(=O)CC[C@@H]23)c2ccc(O)cc21 . Its inhibition was 31

---

Exercise: for every item that follows, state its recorded inhibition.
target: 17-beta-hydroxysteroid dehydrogenase type 1 (Homo sapiens); assay: Inhibition of 17beta-HSD1 over-expressed in intact T47D cells at 10 uM; format: cell-based
Just the number in %, nothing appended.

Fill in: 17-beta-hydroxysteroid dehydrogenase type 1 (Homo sapiens) inhibition for CCCCN(C)C(=O)CCCCCC[C@@H]1C[C@@H]2[C@H](CC[C@]3(C)[C@@H](O)CC[C@@H]23)c2cc(OC)c(O)cc21 = 81

Fill in: 17-beta-hydroxysteroid dehydrogenase type 1 (Homo sapiens) inhibition for CCCCN(C)C(=O)CCCCCC[C@H]1C[C@@H]2[C@H](CC[C@]3(C)[C@@H](O)CC[C@@H]23)c2ccc(O)cc21 = 74

Fill in: 17-beta-hydroxysteroid dehydrogenase type 1 (Homo sapiens) inhibition for CCCCN(C)C(=O)CCCCCC[C@H]1C[C@@H]2[C@H](CC[C@]3(C)C(=O)CC[C@@H]23)c2ccc(O)cc21 = 71

Fill in: 17-beta-hydroxysteroid dehydrogenase type 1 (Homo sapiens) inhibition for C[C@]12CC[C@@H]3c4ccc(O)cc4CC[C@H]3[C@@H]1CCC2=O = 93

Fill in: 17-beta-hydroxysteroid dehydrogenase type 1 (Homo sapiens) inhibition for CCCCN(C)C(=O)CCCCCC[C@@H]1C[C@@H]2[C@H](CC[C@]3(C)[C@@H](O)CC[C@@H]23)c2ccc(O)cc21 = 95

Fill in: 17-beta-hydroxysteroid dehydrogenase type 1 (Homo sapiens) inhibition for CCCCN(C)C(=O)CCCCCC[C@@H]1C[C@@H]2[C@H](CC[C@]3(C)C(=O)CC[C@@H]23)c2ccc(O)cc21 = 92

Fill in: 17-beta-hydroxysteroid dehydrogenase type 1 (Homo sapiens) inhibition for CCCCN(C)C(=O)CCCCCS[C@@H]1C[C@@H]2[C@H](CC[C@]3(C)[C@@H](O)CC[C@@H]23)c2ccc(O)cc21 = 95

---

Exercise: for every item that follows, state its recorded inhibition.
Biological target: 17-beta-hydroxysteroid dehydrogenase type 1 (Homo sapiens)
Sequence (whole entry): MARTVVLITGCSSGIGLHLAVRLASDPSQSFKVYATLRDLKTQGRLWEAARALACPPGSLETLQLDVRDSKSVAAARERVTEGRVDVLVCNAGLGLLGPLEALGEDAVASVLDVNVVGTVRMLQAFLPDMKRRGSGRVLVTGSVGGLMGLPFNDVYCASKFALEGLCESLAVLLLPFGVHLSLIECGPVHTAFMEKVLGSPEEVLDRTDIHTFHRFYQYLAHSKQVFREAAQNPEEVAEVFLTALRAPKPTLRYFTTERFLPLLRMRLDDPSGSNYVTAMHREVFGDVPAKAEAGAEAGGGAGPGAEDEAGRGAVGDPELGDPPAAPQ
Test: Inhibition of 17beta-HSD1 over-expressed in intact T47D cells at 1 uM
Type: cell-based
Just the number in %, nothing appended.

Entry under test: CCCCN(C)C(=O)CCCCCC[C@@H]1C[C@@H]2[C@H](CC[C@]3(C)C(=O)CC[C@@H]23)c2ccc(O)cc21 . Its inhibition was 57

Entry under test: C[C@]12CC[C@@H]3c4ccc(O)cc4CC[C@H]3[C@@H]1CCC2=O . Its inhibition was 85

Entry under test: CCCCN(C)C(=O)CCCCCC[C@@H]1C[C@@H]2[C@H](CC[C@]3(C)[C@@H](O)CC[C@@H]23)c2ccc(O)cc21 . Its inhibition was 82

---

Biological target: 17-beta-hydroxysteroid dehydrogenase type 1 (Homo sapiens)
Sequence (whole entry): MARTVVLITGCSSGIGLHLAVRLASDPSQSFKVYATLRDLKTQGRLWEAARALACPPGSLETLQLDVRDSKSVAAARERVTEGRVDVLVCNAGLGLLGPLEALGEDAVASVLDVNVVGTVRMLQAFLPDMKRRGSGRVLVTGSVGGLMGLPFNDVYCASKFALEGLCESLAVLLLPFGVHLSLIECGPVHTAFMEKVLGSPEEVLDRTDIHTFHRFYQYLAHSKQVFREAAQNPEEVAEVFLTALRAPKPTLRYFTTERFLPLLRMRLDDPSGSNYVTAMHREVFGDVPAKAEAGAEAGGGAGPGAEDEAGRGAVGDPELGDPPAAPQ
Experiment: Inhibition of 17beta-HSD1 over-expressed in intact HEK293 cells at 0.1 uM
Type: cell-based
Exercise: for every item that follows, state its recorded inhibition.
Just the number in %, nothing appended.

Fill in: 17-beta-hydroxysteroid dehydrogenase type 1 (Homo sapiens) inhibition for C[C@]12CC[C@@H]3c4ccc(O)cc4CC[C@H]3[C@@H]1CCC2=O = 8

Fill in: 17-beta-hydroxysteroid dehydrogenase type 1 (Homo sapiens) inhibition for CCCCN(C)C(=O)CCCCCC[C@@H]1C[C@@H]2[C@H](CC[C@]3(C)C(=O)CC[C@@H]23)c2ccc(O)cc21 = 8

Fill in: 17-beta-hydroxysteroid dehydrogenase type 1 (Homo sapiens) inhibition for CCCCN(C)C(=O)CCCCCC[C@@H]1C[C@@H]2[C@H](CC[C@]3(C)[C@@H](O)CC[C@@H]23)c2cc(OC)c(O)cc21 = 13

Fill in: 17-beta-hydroxysteroid dehydrogenase type 1 (Homo sapiens) inhibition for CCCCN(C)C(=O)CCCCCS[C@@H]1C[C@@H]2[C@H](CC[C@]3(C)[C@@H](O)CC[C@@H]23)c2ccc(O)cc21 = 11

Fill in: 17-beta-hydroxysteroid dehydrogenase type 1 (Homo sapiens) inhibition for CCCCN(C)C(=O)CCCCCC[C@H]1C[C@@H]2[C@H](CC[C@]3(C)[C@@H](O)CC[C@@H]23)c2ccc(O)cc21 = 3

Fill in: 17-beta-hydroxysteroid dehydrogenase type 1 (Homo sapiens) inhibition for CCCCN(C)C(=O)CCCCCC[C@@H]1C[C@@H]2[C@H](CC[C@]3(C)[C@@H](O)CC[C@@H]23)c2ccc(O)cc21 = 11

Fill in: 17-beta-hydroxysteroid dehydrogenase type 1 (Homo sapiens) inhibition for CCCCN(C)C(=O)CCCCCC[C@H]1C[C@@H]2[C@H](CC[C@]3(C)C(=O)CC[C@@H]23)c2ccc(O)cc21 = 3
